Test system: KRAS G12D mutant human metastatic pancreatic adenocarcinoma cells AsPC-1
Test: 3D cell proliferation inhibition assay, AsPC-1
Assay type: cell-based
Conditions: 7 days, CTG
Excerpt: Inhibition of 3D cell proliferation by the compounds was investigated on KRAS G12C mutant human non-small cell lung cancer cells NCI-H358 (ATCC or Stem Cell Bank, Chinese Academy of Sciences), KRAS G12D mutant human metastatic pancreatic adenocarcinoma cells AsPC-1 (ATCC), KRAS G12V mutant human lung adenocarcinoma cells NCI-H441 (ATCC), and KRAS G13D mutant human colorectal adenocarcinoma epithelial cells DLD-1 (ATCC). The specific procedures were as follows: […]
VALUE KIND: IC50

Which IC50 reading was recorded for the molecule COc1cc2nc(C)nc(N[C@H](C)c3cc(N)cc(C(F)(F)F)c3)c2cc1C1CCC(C(=O)N2CCN(CC3CCC4(CC3)CCN(C(=O)c3ccc(OC)c(N5CCC(=O)NC5=O)c3)CC4)CC2)CC1 (stereo partly shown) ? 50 to 100 nM
